Every entry's value here was drawn from the domain aggregation screens of Martell et al. (2025).

# protocolNotes: soluble fraction after stress (log2 fold change); higher = more stays soluble; pooled small domains, quantitative proteomics
# conditionNotes: stress: 50 degC
Is soluble fraction (log2) at least 0.05? Then Condition met. If not, Condition not met.

Task: Hi, just wondering whether `HMIVDYPSFVGKTKQELEKWAKENNIIIRYRQLSVTASDKVKAQLPATTTYKRIMKGSSIEVELEL` shows soluble fraction (log2) of 0.05 or higher.
Result: Condition not met

Task: Hi, just wondering whether `HMHKFMEQNQDRRLSRMKELIGILSEAAKTYYQESREIMSNFQYDRMYDELLELEKETGVVMAGSPTQKV` shows soluble fraction (log2) of 0.05 or higher.
Result: Condition not met

Task: Hi, just wondering whether `HMNINHEINIKSKKKISILENNPNLSQFYLTKNPDQYNYNLVFSDKSELNKLKEKLESDNEVEDIDIRYG` shows soluble fraction (log2) of 0.05 or higher.
Result: Condition met

Task: Hi, just wondering whether `HMVVDEQRIQTLVSAAEQNSSDPVPRVTLGNLYFDAEQFEEAVKWYEQALALDPRNVNVSTDLGVGYYY` shows soluble fraction (log2) of 0.05 or higher.
Result: Condition not met

Task: Hi, just wondering whether `HMTYVSVSNYIGTNVDKAKGELESQGLVVLLEEQKTEDKSQDGMVLKQTIEGGTKVSSGSRITLIYGRYT` shows soluble fraction (log2) of 0.05 or higher.
Result: Condition met

Task: Hi, just wondering whether `HMGKKQLVVDLQSIITDVPAALKSYGLEIGQDGKSLIYTYDTKGERTGITTLLNDLQKAGLQMTDMKTQQ` shows soluble fraction (log2) of 0.05 or higher.
Result: Condition met

Task: Hi, just wondering whether `HMALSSQQIKDMQSWYGTKADGIWGSKSTTAAGGRDAGAAYSLYSSNKGRYSSYTDYMSYGGG` shows soluble fraction (log2) of 0.05 or higher.
Result: Condition met

Task: Hi, just wondering whether `HMKEQLLLGFKVRSLRGIDLGFVKFIEGSAFQSFLKTDLTIIPNVPNYVKKIDNVKKIILVDWESD` shows soluble fraction (log2) of 0.05 or higher.
Result: Condition not met
